All figures here come from patent US10800752B2.

I'd appreciate it if you could supply % Measurement value (conversion rate to 2-acetylnaphtho[2,3-b]furan-4,9-dione) values for the items below.
# procedure.text: Evaluation of a conversion rate to 2-acetylnaphtho[2,3-b]furan-4,9-dione in human plasma
# Assay type: in vitro ADME
# stated.conditions: Human plasma, 1 umol/L, 37° C., incubation time 120 min
Numbers only, in %.

Field: example entries. Status: answers known.
compound | unit.string | measured
CC(=O)c1cc2c(OC(=O)NCCCCCCN)c3ccccc3c(OC(=O)NCCCCCCN)c2o1.Cl.Cl | % | 35
CC(=O)c1cc2c(OC(=O)NCCNCCOC(N)=O)c3ccccc3c(OC(=O)NCCNCCOC(N)=O)c2o1.Cl.Cl | % | 81
CC(=O)c1cc2c(OC(=O)NCCNCCS(C)(=O)=O)c3ccccc3c(OC(=O)NCCNCCS(C)(=O)=O)c2o1.Cl.Cl | % | 87

Working through the 4 compounds below one at a time, give % Measurement value (conversion rate to 2-acetylnaphtho[2,3-b]furan-4,9-dione) for each.
1. CC(=O)c1cc2c(OC(=O)NCCCCCCCCN)c3ccccc3c(O)c2o1.Cl
2. CC(=O)c1cc2c(OC(=O)NCCNCCF)c3ccccc3c(OC(=O)NCCNCCF)c2o1.Cl.Cl
3. CC(=O)c1cc2c(O)c3ccccc3c(OC(=O)NCCCNCCS(=O)(=O)N(C)C)c2o1.Cl
4. CC(=O)c1cc2c(OC(=O)NCCNCc3ccccc3)c3ccccc3c(OC(=O)NCCNCc3ccccc3)c2o1.Cl.Cl

Response:
79
81
54
86
